MEASURED_TARGET: collagenase from Clostridium Histolyticum
TEST_METHOD_NOTES: Collagenase inhibiting activity (method of Appel, substrate N-carbobenzoxy-pro-gly-gly-L-pro-L-alanine)
Assay type: biochemical
MEASUREMENT_PARAMETERS: collagenase type II (Sigma); collagen synthetic peptide substrate; read-out: IC₅₀
pIC50: −log10 of the molar value.
MEASUREMENT_NAME: pIC50

Ask | Find the recorded pIC50 belonging to CC(C)C(SC(=O)c1cccs1)C(=O)NC1CCSC1=O (stereo not shown) and report it.
Reply | ~5.70
